Tested on: Plasmodium falciparum Sir2 (PF13_0152, Sir2A)
assay-overview: pfSir2 binders on small-molecule microarrays, primary screen, biochemical, small-molecule microarray, 635 nm fluorescence (AID 1098);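 note: score merges spot fluorescence intensity with its signal-to-noise ratio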
assay-conditions: small-molecule microarray binding, fluorescence 635 nm; higher = more signal
Quick reference: composite z-score of the listed items.
Form: value (number only, do not type unit).

Prompt: Complete the entry with composite z-score for `CC(C)(C)OC(=O)CC[C@]1(C(=O)N2CCOCC2)COC(c2ccc(OCCCO)cc2)=N1`
Response: 1.45

Prompt: Complete the entry with composite z-score for `CC(=O)NCCCC[C@@H]1NC(=O)[C@H]2C[C@@H](C(=O)O)[C@@H](c3cccc(OCCO)c3)N2C1=O`
Response: 1.69

Prompt: Complete the entry with composite z-score for `C=CCOC(=O)[C@@H]1[C@H]2C(=O)O[C@H](c3ccccc3)[C@H](c3ccccc3)N2[C@H](c2ccc(OCCOC(=O)[C@H]3C[C@H]4C(=O)N[C@@H](CCCCN(C)C)C(=O)N4[C@H]3c3cccc(OCCO)c3)cc2)[C@@]12C(=O)Nc1ccccc12`
Response: 0.938

Prompt: Complete the entry with composite z-score for `CC(C)N1C(=O)[C@@]2(Cc3ccccc31)c1ccccc1C(=O)N(Cc1ccccc1)[C@H]2c1ccc(CO)cc1`
Response: 0.0154

Prompt: Complete the entry with composite z-score for `[N-]=[N+]=NCc1ccccc1C[C@@]1(C(=O)NCCN2CCOCC2)N=C(c2ccc(OCCCO)cc2)O[C@@H]1c1ccccc1`
Response: 0.365

Prompt: Complete the entry with composite z-score for `CCc1cccc(NC(=O)O[C@H]2[C@H](OC(=O)Nc3ccccc3-c3ccccc3)[C@H](OC(=O)Nc3ccccc3-c3ccccc3)[C@@H](OC)O[C@@H]2CO)c1`
Response: 0.477

Prompt: Complete the entry with composite z-score for CCCCN1CC=CC23O[C@@H]4C=CCCOC(=O)C4[C@H]2C(=O)N(CCO)[C@@H]3C1=O (some centres not stated)
Response: -1.33

----------
Quick reference: z-score of the listed items.
assay-overview: adipocyte viability effects, profiling panel, cell-based, 3T3-L1 adipocytes, calcein-AM fluorescence, 48 h, basal (AID 1163); note: test concentration not given here
assay-conditions: 3T3-L1 adipocytes viability, higher = more signal
Form: value (number only, do not type unit).

A selection of reference data follows.
molecule: C=C(COC)C(=O)CC[C@H](OC(C)=O)c1ccc(CO)o1
z-score: 0.972
--
molecule: CC(=O)NCCCC[C@@H]1NC(=O)[C@H]2C[C@@H](C(=O)NCCCCCN)[C@@H](c3ccc(O)cc3)N2C1=O
z-score: 0.311
--
molecule: O=C(c1ccccc1)N1Cc2ccccc2C[C@@]2(N=C(c3ccc(OCCCO)cc3)O[C@H]2c2ccccc2)C1=O
z-score: 0.862
--
molecule: COCCOC(=O)N1C(=O)[C@@]2(c3cc(C#CCC(C(=O)OC)C(=O)OC)ccc31)[C@H](C(=O)N1CCc3cc(OC)c(OC)cc3C1)[C@H]1C(=O)O[C@H](c3ccccc3)[C@H](c3ccccc3)N1[C@@H]2c1ccccc1OCCO
z-score: 0.964

Prompt: Complete the entry with z-score for CCCC1(C(=O)OC)C=C2C(=C(C(C)C)C(=O)C2C)CN1 (configuration not stated)
Response: 0.273

Prompt: Complete the entry with z-score for CCN1C(=O)C2CC(=O)C3C(CN(S(=O)(=O)c4ccc(C)cc4)C3c3ccc(C)cc3)C2C1=O (configuration not stated)
Response: -0.902

Prompt: Complete the entry with z-score for `COC(=O)[C@@]1(Cc2ccc(F)cc2)[C@H]2c3cc(C(=O)N4CCCC4)n(C[C@H](O)CO)c3C[C@H]2CN1C(=O)c1ccccc1`
Response: 0.24
